// reported Cmax per item
- Experimental Protocol: Open-label sequential drug-drug interaction study: plasma pharmacokinetics of deutetrabenazine and its metabolites without and with steady-state paroxetine
- Measurement Conditions: human, in vivo, im

Solved entries:
COc1cc2c(cc1OC)[C@@H]1C[C@H](O)[C@@H](CC(C)C)CN1CC2: 40.5 (22) ng/mL
COc1cc2c(cc1OC)[C@H]1C[C@H](O)[C@H](CC(C)C)CN1CC2: 32.6 (22) ng/mL
[2H]C([2H])([2H])Oc1cc2c(cc1OC([2H])([2H])[2H])C1CC(=O)C(CC(C)C)CN1CC2 (centres unmarked): 0.5 (66) ng/mL
COc1cc2c(cc1O)CCN1C[C@@H](CC(C)C)[C@H](O)C[C@H]21: 1.2 (45) ng/mL

Query string: State the recorded Cmax for this entry: `COc1cc2c(cc1O)CCN1C[C@@H](CC(C)C)[C@@H](O)C[C@H]21`
Result string: 4.2 (45) ng/mL
